Reference for the values: patent US20240400553A1

Tested target: Human Recombinant Matriptase 2 (Homo sapiens)
Construct: made in house
Sequence (Q8IU80 1-811): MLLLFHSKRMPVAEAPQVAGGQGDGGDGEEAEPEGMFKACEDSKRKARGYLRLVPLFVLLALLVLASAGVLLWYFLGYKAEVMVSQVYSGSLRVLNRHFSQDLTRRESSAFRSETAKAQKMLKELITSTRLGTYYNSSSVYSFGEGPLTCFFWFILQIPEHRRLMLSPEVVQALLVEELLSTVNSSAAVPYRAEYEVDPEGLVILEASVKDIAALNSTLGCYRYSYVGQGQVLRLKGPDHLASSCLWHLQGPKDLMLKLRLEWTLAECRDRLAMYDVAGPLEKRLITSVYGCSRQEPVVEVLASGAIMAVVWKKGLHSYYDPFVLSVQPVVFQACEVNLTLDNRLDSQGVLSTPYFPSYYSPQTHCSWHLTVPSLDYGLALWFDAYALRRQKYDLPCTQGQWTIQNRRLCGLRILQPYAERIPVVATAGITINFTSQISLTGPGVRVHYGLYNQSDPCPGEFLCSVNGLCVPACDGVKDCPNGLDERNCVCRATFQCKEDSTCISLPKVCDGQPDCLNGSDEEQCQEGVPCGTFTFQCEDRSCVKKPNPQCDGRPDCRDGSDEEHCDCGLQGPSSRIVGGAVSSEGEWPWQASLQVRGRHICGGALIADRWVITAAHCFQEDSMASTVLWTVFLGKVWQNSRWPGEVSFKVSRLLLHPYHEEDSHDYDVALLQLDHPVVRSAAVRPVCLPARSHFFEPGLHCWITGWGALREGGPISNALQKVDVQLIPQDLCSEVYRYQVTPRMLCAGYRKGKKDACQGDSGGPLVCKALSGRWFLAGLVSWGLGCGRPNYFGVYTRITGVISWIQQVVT
Assay method text: Matriptase 2 inhibition, fluorescence based assay (Method I)
Type: biochemical
Condition description: Table A; Ki of Matriptase-2; read-out: Mat-2 Ki
pKi: −log10 of the molar value.
pKi reference

{"Molecule": "NCc1ccc2cc(C(=O)OCCN3CCCCC3)n(Cc3cc(NS(=O)(=O)Cc4ccccc4)cc4ccccc34)c2n1", "pKi": "≥ 7.00"}
{"Molecule": "CNCCCOC(=O)c1cc2ccc(CN)nc2n1Cc1cc(NS(=O)(=O)Cc2ccccc2)cc2ccccc12", "pKi": "≥ 7.00"}
{"Molecule": "CN1CCC(C)(COC(=O)c2cc3ccc(CN)nc3n2Cc2cc(NS(=O)(=O)Cc3ccccc3)cc3ccccc23)CC1", "pKi": "≥ 7.00"}
{"Molecule": "CN1CCC(CCNC(=O)c2cc3ccc(CN)nc3n2Cc2cc(NS(=O)(=O)Cc3ccsc3)cc3ccccc23)CC1", "pKi": "≥ 7.00"}
{"Molecule": "NCc1ccc2cc(C(=O)OCc3ccccn3)n(Cc3cc(NS(=O)(=O)Cc4ccccc4)cc4ccccc34)c2n1", "pKi": "6.30 to 7.00"}
{"Molecule": "NCc1ccc2cc(C(=O)OCCCN3CCOCC3)n(Cc3cc(NS(=O)(=O)Cc4ccccc4)cc4ccccc34)c2n1", "pKi": "6.30 to 7.00"}
{"Molecule": "COCCN1CC[C@H](COC(=O)c2cc3ccc(CN)nc3n2Cc2cc(NS(=O)(=O)Cc3ccsc3)cc3ccccc23)C1 (racemic)", "pKi": "≥ 7.00"}
